Reference for the values: patent US20120214173A1

# ASSAYED_SYSTEM: T1, isolated EH-domain of EHD2 (mouse, UniProt Q8BH64 443-543, limits assumed)
# T1 construct: domain: EH-domain; ITC buffer contained 200 µM CaCl2
# T1 sequence (looked up): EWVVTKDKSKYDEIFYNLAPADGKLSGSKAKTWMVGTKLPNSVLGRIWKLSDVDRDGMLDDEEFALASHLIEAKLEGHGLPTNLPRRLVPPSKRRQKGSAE
# ASSAY_DETAILS: ITC at 10 °C, 100 mM HEPES pH 7.5, 50 mM NaCl, 200 µM CaCl2; peptide against the EH-domain of EHD2
ENDPOINT: Kd (µM)
Answer in µM, number only, no unit symbol.

Looking for the measured Kd of KLNPFGNT (also called side site NPF peptide) [peptide 124-KLNPFGNT from EHD2] , can you help?
130
